- assayedSystem: CCR10 (Homo sapiens)
- Construct: expressed in transfected cells
- Sequence (P46092 whole entry): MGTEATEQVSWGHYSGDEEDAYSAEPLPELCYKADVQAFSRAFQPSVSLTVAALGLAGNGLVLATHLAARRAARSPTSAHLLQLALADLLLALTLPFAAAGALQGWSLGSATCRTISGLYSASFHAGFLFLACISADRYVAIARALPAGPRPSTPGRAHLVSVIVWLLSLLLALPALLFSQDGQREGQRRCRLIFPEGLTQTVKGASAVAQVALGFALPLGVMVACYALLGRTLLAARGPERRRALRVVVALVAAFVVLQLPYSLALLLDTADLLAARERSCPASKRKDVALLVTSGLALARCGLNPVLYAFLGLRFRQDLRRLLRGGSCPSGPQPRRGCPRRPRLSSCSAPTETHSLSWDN
- testProtocol: Figure S2a opioid peptide screen on chemokine receptors
- Format: cell-based
- Design: dose or concentration left out as unconfirmed
- conditions: replicate 2, read-out: CCR10 activity, ctrl+ = 100
readoutLabel: activation (%)
Express it in %; write the number only.

Recall the recorded activation for CC[C@H](C)[C@H](NC(=O)[C@H](CCCNC(=N)N)NC(=O)[C@H](CCCNC(=N)N)NC(=O)[C@H](CC(C)C)NC(=O)[C@H](Cc1ccccc1)NC(=O)CNC(=O)CNC(=O)[C@@H](N)Cc1ccc(O)cc1)C(=O)N[C@@H](CCCNC(=N)N)C(=O)N1CCC[C@H]1C(=O)N[C@@H](CCCCN)C(=O)N[C@@H](CC(C)C)C(=O)N[C@@H](CCCCN)C(=O)N[C@@H](Cc1c[nH]c2ccccc12)C(=O)N[C@@H](CC(=O)O)C(=O)N[C@@H](CC(N)=O)C(=O)N[C@@H](CCC(N)=O)C(=O)O with CCR10 (Homo sapiens) and state it.
-7.47

* * *

Give activation for every item shown.
- assayedSystem: UniProtKB P51677
- Sequence (P51677 whole entry): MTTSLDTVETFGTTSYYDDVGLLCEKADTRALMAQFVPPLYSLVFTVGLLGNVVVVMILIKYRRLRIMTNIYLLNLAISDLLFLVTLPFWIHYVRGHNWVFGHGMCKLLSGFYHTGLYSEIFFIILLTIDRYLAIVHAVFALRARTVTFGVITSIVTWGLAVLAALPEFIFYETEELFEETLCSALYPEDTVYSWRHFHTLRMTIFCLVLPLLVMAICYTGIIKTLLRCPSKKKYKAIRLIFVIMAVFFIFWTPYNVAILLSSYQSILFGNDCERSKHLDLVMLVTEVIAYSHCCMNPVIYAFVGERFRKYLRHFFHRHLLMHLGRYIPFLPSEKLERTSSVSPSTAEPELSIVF
- testProtocol: Figure S2a opioid peptide screen on chemokine receptors
- Design: dose or concentration left out as unconfirmed
- conditions: read-out: CCR3 activity, ctrl+ = 100, Figure S2a; replicate 3
Starred links: 1 amine or outer side, 2 acyl side, 3 side chain; linkers in the order of their positions; H or OH if unused. Non-standard residues stand in square brackets, D forms with d. Residues, ends and D or L forms follow the SMILES beside them. X1 = N[C@@H](Cc1ccccc1)CN(CC(=O)[*:2])[*:1]
Express it in %; write the number only.

What does the data say about its activation? Entry: CSCC[C@H](NC(=O)[C@H](Cc1ccccc1)NC(=O)CNC(=O)CNC(=O)[C@@H](N)Cc1ccc(O)cc1)C(=O)N[C@@H](CCCNC(=N)N)C(=O)N[C@@H](CCCNC(=N)N)C(=O)N[C@H](C(N)=O)C(C)C
23.6

What does the data say about its activation? Entry: C[C@H](NC(=O)CNC(=O)[C@@H](NC(=O)[C@H](Cc1ccccc1)NC(=O)CNC(=O)CNC[C@@H](N)Cc1ccccc1)[C@@H](C)O)C(=O)N[C@@H](CCCNC(=N)N)C(=O)N[C@@H](CCCCN)C(=O)N[C@@H](CO)C(=O)N[C@@H](C)C(=O)N[C@@H](CCCNC(=N)N)C(=O)N[C@@H](CCCCN)C(N)=O [FG Nociceptin 1-13] (H-[X1]GFTGARKSARK-NH2)
14.1

What does the data say about its activation? Entry: C[C@H](NC(=O)CNC(=O)[C@@H](NC(=O)[C@H](Cc1ccccc1)NC(=O)CNC(=O)CNC(=O)[C@@H](N)Cc1ccccc1)[C@@H](C)O)C(=O)N[C@@H](CCCNC(=N)N)C(=O)N[C@@H](CCCCN)C(=O)N[C@@H](CO)C(=O)N[C@@H](C)C(=O)N[C@@H](CCCNC(=N)N)C(=O)N[C@@H](CCCCN)C(N)=O
14.8

What does the data say about its activation? Entry: CC[C@H](C)[C@H](NC(=O)[C@H](CCCNC(=N)N)NC(=O)[C@H](CCCNC(=N)N)NC(=O)[C@H](CC(C)C)NC(=O)[C@H](Cc1ccccc1)NC(=O)CNC(=O)CNC(=O)[C@@H](N)Cc1ccc(O)cc1)C(=O)N[C@@H](CCCNC(=N)N)C(=O)N1CCC[C@H]1C(=O)N[C@@H](CCCCN)C(=O)N[C@@H](CC(C)C)C(=O)N[C@@H](CCCCN)C(=O)N[C@@H](Cc1c[nH]c2ccccc12)C(=O)N[C@@H](CC(=O)O)C(=O)N[C@@H](CC(N)=O)C(=O)N[C@@H](CCC(N)=O)C(=O)O
43.5

* * *

Give activation for every item shown.
- assayedSystem: CXCR4 (Homo sapiens)
- Construct: expressed in transfected cells; host or cells: U87, transient cotransfection of pNBe vectors
- Sequence (P61073 whole entry): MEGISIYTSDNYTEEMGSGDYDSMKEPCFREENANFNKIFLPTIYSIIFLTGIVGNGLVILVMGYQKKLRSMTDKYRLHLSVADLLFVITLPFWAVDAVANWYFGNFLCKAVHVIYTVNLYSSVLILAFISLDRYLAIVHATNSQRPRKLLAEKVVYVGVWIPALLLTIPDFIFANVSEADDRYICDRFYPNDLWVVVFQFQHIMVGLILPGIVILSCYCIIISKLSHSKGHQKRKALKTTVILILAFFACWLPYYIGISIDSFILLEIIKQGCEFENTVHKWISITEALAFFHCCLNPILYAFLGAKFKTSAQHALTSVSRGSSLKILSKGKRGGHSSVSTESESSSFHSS
- testProtocol: cell-based
- Set-up: dose or concentration left out as unconfirmed
- conditions: Figure S2a; replicate 3; read-out: CXCR4 activity, ctrl+ = 100
Starred links: 1 amine or outer side, 2 acyl side, 3 side chain; linkers in the order of their positions; H or OH if unused. Non-standard residues stand in square brackets, D forms with d. Residues, ends and D or L forms follow the SMILES beside them. X1 = N[C@@H](Cc1ccccc1)CN(CC(=O)[*:2])[*:1]
Express it in %; write the number only.

What does the data say about its activation? Entry: C[C@H](NC(=O)CNC(=O)[C@@H](NC(=O)[C@H](Cc1ccccc1)NC(=O)CNC(=O)CNC(=O)[C@@H](N)Cc1ccccc1)[C@@H](C)O)C(=O)N[C@@H](CCCNC(=N)N)C(=O)N[C@@H](CCCCN)C(=O)N[C@@H](CO)C(=O)N[C@@H](C)C(=O)N[C@@H](CCCNC(=N)N)C(=O)N[C@@H](CCCCN)C(N)=O
28.2

What does the data say about its activation? Entry: CC[C@H](C)[C@H](NC(=O)[C@H](CCCNC(=N)N)NC(=O)[C@H](CCCNC(=N)N)NC(=O)[C@H](CC(C)C)NC(=O)[C@H](Cc1ccccc1)NC(=O)CNC(=O)CNC(=O)[C@@H](N)Cc1ccc(O)cc1)C(=O)N[C@@H](CCCNC(=N)N)C(=O)N1CCC[C@H]1C(=O)N[C@@H](CCCCN)C(=O)N[C@@H](CC(C)C)C(=O)N[C@@H](CCCCN)C(=O)N[C@@H](Cc1c[nH]c2ccccc12)C(=O)N[C@@H](CC(=O)O)C(=O)N[C@@H](CC(N)=O)C(=O)N[C@@H](CCC(N)=O)C(=O)O
36.5

What does the data say about its activation? Entry: C[C@H](NC(=O)CNC(=O)[C@@H](NC(=O)[C@H](Cc1ccccc1)NC(=O)CNC(=O)CNC[C@@H](N)Cc1ccccc1)[C@@H](C)O)C(=O)N[C@@H](CCCNC(=N)N)C(=O)N[C@@H](CCCCN)C(=O)N[C@@H](CO)C(=O)N[C@@H](C)C(=O)N[C@@H](CCCNC(=N)N)C(=O)N[C@@H](CCCCN)C(N)=O [FG Nociceptin 1-13] (H-[X1]GFTGARKSARK-NH2)
27.5

What does the data say about its activation? Entry: CC(C)C[C@H](NC(=O)[C@H](Cc1ccccc1)NC(=O)CNC(=O)CNC(=O)[C@@H](N)Cc1ccc(O)cc1)C(=O)N[C@@H](CCCN=C(N)N)C(=O)N[C@@H](CCCN=C(N)N)C(=O)N[C@@H](CCC(N)=O)C(=O)N[C@@H](Cc1ccccc1)C(=O)N[C@@H](CCCCN)C(=O)N[C@H](C(=O)N[C@H](C(=O)N[C@H](C(=O)O)[C@@H](C)O)C(C)C)C(C)C
-6.95

What does the data say about its activation? Entry: CSCC[C@H](NC(=O)[C@H](Cc1ccccc1)NC(=O)CNC(=O)CNC(=O)[C@@H](N)Cc1ccc(O)cc1)C(=O)N[C@@H](CCCNC(=N)N)C(=O)N[C@@H](CCCNC(=N)N)C(=O)N[C@H](C(N)=O)C(C)C
3.91

* * *

- assayedSystem: CXCR3A (Homo sapiens, UniProt P49682)
- Construct: expressed in transfected cells; host or cells: U87 cells
- Sequence (P49682 whole entry): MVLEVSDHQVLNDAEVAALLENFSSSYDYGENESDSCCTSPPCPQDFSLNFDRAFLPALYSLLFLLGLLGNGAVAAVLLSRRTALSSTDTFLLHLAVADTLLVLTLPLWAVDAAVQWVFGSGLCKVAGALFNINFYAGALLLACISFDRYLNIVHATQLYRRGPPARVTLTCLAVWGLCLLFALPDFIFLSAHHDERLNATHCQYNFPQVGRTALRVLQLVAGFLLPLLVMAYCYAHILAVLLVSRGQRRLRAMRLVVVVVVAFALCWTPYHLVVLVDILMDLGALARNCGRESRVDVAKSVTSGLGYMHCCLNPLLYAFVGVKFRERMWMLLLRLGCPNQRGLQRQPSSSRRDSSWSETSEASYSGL
- testProtocol: Figure S2a opioid peptide screen on chemokine receptors
- Assay type: cell-based
- Set-up: dose or concentration left out as unconfirmed
- conditions: replicate 2, read-out: CXCR3A activity, ctrl+ = 100
Starred links: 1 amine or outer side, 2 acyl side, 3 side chain; linkers in the order of their positions; H or OH if unused. Non-standard residues stand in square brackets, D forms with d. Residues, ends and D or L forms follow the SMILES beside them. X1 = N[C@@H](Cc1ccccc1)CN(CC(=O)[*:2])[*:1]
Give activation for every item shown.
Express it in %; write the number only.

What does the data say about its activation? Entry: CC[C@H](C)[C@H](NC(=O)[C@H](CCCNC(=N)N)NC(=O)[C@H](CCCNC(=N)N)NC(=O)[C@H](CC(C)C)NC(=O)[C@H](Cc1ccccc1)NC(=O)CNC(=O)CNC(=O)[C@@H](N)Cc1ccc(O)cc1)C(=O)N[C@@H](CCCNC(=N)N)C(=O)N1CCC[C@H]1C(=O)N[C@@H](CCCCN)C(=O)N[C@@H](CC(C)C)C(=O)N[C@@H](CCCCN)C(=O)O
-8.16

What does the data say about its activation? Entry: C[C@H](NC(=O)CNC(=O)[C@@H](NC(=O)[C@H](Cc1ccccc1)NC(=O)CNC(=O)CNC(=O)[C@@H](N)Cc1ccccc1)[C@@H](C)O)C(=O)N[C@@H](CCCNC(=N)N)C(=O)N[C@@H](CCCCN)C(=O)N[C@@H](CO)C(=O)N[C@@H](C)C(=O)N[C@@H](CCCNC(=N)N)C(=O)N[C@@H](CCCCN)C(N)=O
-4.46

What does the data say about its activation? Entry: CC(C)C[C@H](NC(=O)[C@H](CCCCN)NC(=O)[C@H](CCCN=C(N)N)NC(=O)[C@H](C)NC(=O)[C@H](CO)NC(=O)[C@H](CCCCN)NC(=O)[C@H](CCCN=C(N)N)NC(=O)[C@H](C)NC(=O)CNC(=O)[C@@H](NC(=O)[C@H](Cc1ccccc1)NC(=O)CNC(=O)CNC(=O)[C@@H](N)Cc1ccccc1)[C@@H](C)O)C(=O)N[C@@H](C)C(=O)N[C@@H](CC(N)=O)C(=O)N[C@@H](CCC(N)=O)C(=O)O
-5.51

What does the data say about its activation? Entry: NC(=O)[C@H](Cc1ccccc1)NC(=O)[C@H](Cc1c[nH]c2ccccc12)NC(=O)[C@@H]1CCCN1C(=O)[C@@H](N)Cc1ccc(O)cc1 [Endomorphin-1]
-3.63

What does the data say about its activation? Entry: CC[C@H](C)[C@H](NC(=O)[C@H](CCCNC(=N)N)NC(=O)[C@H](CCCNC(=N)N)NC(=O)[C@H](CC(C)C)NC(=O)[C@H](Cc1ccccc1)NC(=O)CNC(=O)CN)C(=O)N[C@@H](CCCNC(=N)N)C(=O)N1CCC[C@H]1C(=O)N[C@@H](CCCCN)C(=O)N[C@@H](CC(C)C)C(=O)N[C@@H](CCCCN)C(=O)N[C@@H](Cc1c[nH]c2ccccc12)C(=O)N[C@@H](CC(=O)O)C(=O)N[C@@H](CC(N)=O)C(=O)N[C@@H](CCC(N)=O)C(=O)O
-10.2

What does the data say about its activation? Entry: C[C@H](NC(=O)CNC(=O)[C@@H](NC(=O)[C@H](Cc1ccccc1)NC(=O)CNC(=O)CNC[C@@H](N)Cc1ccccc1)[C@@H](C)O)C(=O)N[C@@H](CCCNC(=N)N)C(=O)N[C@@H](CCCCN)C(=O)N[C@@H](CO)C(=O)N[C@@H](C)C(=O)N[C@@H](CCCNC(=N)N)C(=O)N[C@@H](CCCCN)C(N)=O [FG Nociceptin 1-13] (H-[X1]GFTGARKSARK-NH2)
-1.45

What does the data say about its activation? Entry: CC[C@H](C)[C@H](NC(=O)[C@H](CCCNC(=N)N)NC(=O)[C@H](CCCNC(=N)N)NC(=O)[C@H](CC(C)C)NC(=O)[C@H](Cc1ccccc1)NC(=O)CNC(=O)CNC(=O)[C@@H](N)Cc1ccc(O)cc1)C(=O)N[C@@H](CCCNC(=N)N)C(=O)N1CCC[C@H]1C(=O)N[C@@H](CCCCN)C(=O)N[C@@H](CC(C)C)C(=O)N[C@@H](CCCCN)C(=O)N[C@@H](Cc1c[nH]c2ccccc12)C(=O)N[C@@H](CC(=O)O)C(=O)N[C@@H](CC(N)=O)C(=O)N[C@@H](CCC(N)=O)C(=O)O
-3.36

What does the data say about its activation? Entry: CC(C)C[C@H](NC(=O)[C@H](Cc1ccccc1)NC(=O)CNC(=O)CNC(=O)[C@@H](N)Cc1ccc(O)cc1)C(=O)N[C@@H](CCCN=C(N)N)C(=O)N[C@@H](CCCN=C(N)N)C(=O)N[C@@H](CCC(N)=O)C(=O)N[C@@H](Cc1ccccc1)C(=O)N[C@@H](CCCCN)C(=O)N[C@H](C(=O)N[C@H](C(=O)N[C@H](C(=O)O)[C@@H](C)O)C(C)C)C(C)C
-4.87

What does the data say about its activation? Entry: CSCC[C@H](NC(=O)[C@H](Cc1ccccc1)NC(=O)CNC(=O)CNC(=O)[C@@H](N)Cc1ccc(O)cc1)C(=O)N[C@@H](CCCNC(=N)N)C(=O)N[C@@H](CCCNC(=N)N)C(=O)N[C@H](C(N)=O)C(C)C
0.214
